Each entry below carries its recorded IC50.
target: IKKε (Homo sapiens, UniProt Q14164); experiment: IKKε biochemical assay; conditions: 10 point 1:4 dose response, 30 uM top concentration, 90 min at 25° C., LabChip EZ Reader II; read-out: IKKε_IC50
Sequence (Q14164 whole entry, species assumed): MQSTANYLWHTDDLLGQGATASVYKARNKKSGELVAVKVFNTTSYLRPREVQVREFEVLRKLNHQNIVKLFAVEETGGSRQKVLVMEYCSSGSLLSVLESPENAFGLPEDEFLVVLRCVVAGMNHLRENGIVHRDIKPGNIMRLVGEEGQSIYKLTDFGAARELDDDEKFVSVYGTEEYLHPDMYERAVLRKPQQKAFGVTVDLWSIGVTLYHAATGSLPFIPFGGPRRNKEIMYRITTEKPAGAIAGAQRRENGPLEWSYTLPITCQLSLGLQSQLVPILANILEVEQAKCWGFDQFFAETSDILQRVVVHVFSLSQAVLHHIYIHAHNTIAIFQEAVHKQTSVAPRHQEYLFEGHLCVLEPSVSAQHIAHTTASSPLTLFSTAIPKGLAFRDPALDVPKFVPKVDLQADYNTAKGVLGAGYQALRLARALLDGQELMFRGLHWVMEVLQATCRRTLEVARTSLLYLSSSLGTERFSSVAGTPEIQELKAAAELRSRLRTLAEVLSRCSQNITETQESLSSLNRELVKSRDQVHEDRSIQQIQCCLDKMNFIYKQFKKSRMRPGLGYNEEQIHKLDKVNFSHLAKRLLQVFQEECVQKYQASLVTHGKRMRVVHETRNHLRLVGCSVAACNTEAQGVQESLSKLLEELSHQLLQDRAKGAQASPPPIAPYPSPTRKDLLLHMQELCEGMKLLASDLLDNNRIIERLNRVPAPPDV

The value of IC50 measured for the compound C[C@@H](O)C(=O)N1CCC(Oc2ccc(-c3ccnc(Nc4ccc(C5CCN(C6COC6)C5)cc4)n3)cc2C#N)C(F)(F)C1 (stereo partly shown) turned out to be < 100 nM

The value of IC50 measured for the compound CN1CCN(c2ccc(Nc3nccc(-c4ccc(OC5CCN(C)CC5(F)F)c(C#N)c4)n3)nc2)CC1 (stereo not shown) turned out to be 100 to 1000 nM

The value of IC50 measured for the compound COc1nc(Nc2nccc(-c3ccc(OC4CCOCC4)c(C#N)c3)n2)ccc1N1CCN(CCO)CC1 turned out to be < 100 nM

The value of IC50 measured for the compound COc1nc(C(=O)N(C)C)ccc1Nc1nccc(-c2ccc(OC3CCOCC3)c(C#N)c2)n1 turned out to be < 100 nM
